test system: Renin (Homo sapiens)
Sequence (P00797 whole entry): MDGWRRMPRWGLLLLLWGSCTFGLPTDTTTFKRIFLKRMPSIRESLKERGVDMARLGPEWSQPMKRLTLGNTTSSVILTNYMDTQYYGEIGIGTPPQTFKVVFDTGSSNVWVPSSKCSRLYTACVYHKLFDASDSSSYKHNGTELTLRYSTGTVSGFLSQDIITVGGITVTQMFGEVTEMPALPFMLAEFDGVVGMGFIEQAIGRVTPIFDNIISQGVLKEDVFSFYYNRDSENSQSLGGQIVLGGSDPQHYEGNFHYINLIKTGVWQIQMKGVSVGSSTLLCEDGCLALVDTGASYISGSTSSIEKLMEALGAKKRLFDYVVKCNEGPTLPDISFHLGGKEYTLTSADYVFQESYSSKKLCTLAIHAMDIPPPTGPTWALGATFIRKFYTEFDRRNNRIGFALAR
test: Inhibition of human recombinant renin using dabcyl-gamma-Abu-Ile-His-Pro-Phe-His-Leu-Val-Ile-His-Thr-EDANS as substrate preincubated for 30 mins after measured after 30 mins by fluorescence assay in presence of C57BL/6 mouse plasma
A collection of compounds and their measured IC50
Provide only the numeric value, understood in nM.

According to the records, this compound `Cc1ccc(F)c(C)c1Oc1c(C(=O)N2CCNCC2)c2ncccc2n1-c1ccccc1` displays IC50 of 36

Form: compound = `Cc1cccc(C)c1Oc1c(C(=O)N2CCNCC2)c2ncccc2n1-c1ccccc1` ; IC50 = 15

GET /value?item= `Cc1c(F)cccc1Cc1c(C(=O)N2CCNCC2)c2ccncc2n1-c1ccccc1` &field=IC50 returns 26

Continue with the compound presented below.
Per the records, this compound ( `Cc1ccc(F)cc1Oc1c(C(=O)N2CCNCC2)c2ccnc(Cc3ccccc3)c2n1-c1ccccc1` ) has IC50 equal to 192
